Form field: TGI (one value per entry).
test system: SK-MEL-5 melanoma; assay: NCI tumour cell line growth inhibition, 48 h
Attribute Measured: TGI

>>> experimental_result("CC(C)(C)OC(=O)CN1CCNCCN(CC(=O)OC(C)(C)C)CC1")
"> 100 µM"
>>> experimental_result("COc1ccc(-c2c(C#N)c(S)n(C3OC(CO)C(O)C(O)C3O)c(=O)c2C#N)cc1 (stereo not drawn)")
"> 100 µM"
>>> experimental_result("CCC1CN2CCc3cc(OC)c(OC)cc3C2CC1CC1c2cc(OC)c(OC)cc2CCN1C(=O)CNC(=O)OC(C)(C)C (stereo not drawn)")
"21 µM"

* * *

test system: RPMI-8226 leukemia; assay: NCI tumour cell line growth inhibition, 48 h; in the data active = GI50 below about 0.43 µM; inactive = the rest
Labels: active, inactive

>>> label_class("CCCCC[C@H]1C/C=C2/C(=O)C(Cl)=C[C@@H]2C/C=C\\CCCC(=O)O[C@@H](CCCCC)C/C=C2/C(=O)C(Cl)=C[C@@H]2C/C=C\\CCCC(=O)O1")
"active"
>>> label_class("S=c1ssc(Sc2ccccn2)c1Cl")
"inactive"
>>> label_class("Cn1cc(-c2ccc(CNc3cc(-c4cnc5cc(OCCCN6CCCC6)ccn45)ncn3)cc2)cn1")
"inactive"
>>> label_class("Cc1cc(N2CCCC2)nc(N(CCCNc2ccnc3cc(Cl)ccc23)Cc2ccc3c(c2)OCO3)n1")
"active"
>>> label_class("NCc1ccc(-n2c(-c3nonc3N)nc3cnccc32)cc1")
"inactive"

* * *

system: CCRF-CEM leukemia; experiment: NCI tumour cell line growth inhibition, 48 h
Form field: TGI (one value per entry).
Attribute Measured: TGI

>>> experimental_result("CS(=O)(=O)Nc1cc(-c2ccc3ncnc(Nc4ccc5c(cnn5Cc5ccc(F)cc5)c4)c3c2)cnc1Cl")
"> 100 µM"
>>> experimental_result("COc1ccc(CSc2nc3ccccc3nc2-c2cccs2)cc1")
"76.3 µM"
>>> experimental_result("O=c1oc2ccc(Cl)cc2c(=O)n1-c1ccc(I)cc1F")
"5.14 µM"
>>> experimental_result("CN1CN(c2ccccc2)C2(CCN(CCCC(=O)c3cccs3)CC2)C1=O")
"> 100 µM"
>>> experimental_result("COc1ccccc1-c1c(C)nn2c(NCc3ccccn3)cc(C)nc12")
"> 50 µM"
>>> experimental_result("Cc1ccc(-n2cnc3c(N/N=C4\\SCC(=O)N4c4ccccc4)ncnc32)cc1")
"4.93 µM"
>>> experimental_result("CCOc1ccc(NC(=O)CC2SC(N)=NC2=O)cc1 (stereo not given)")
"> 100 µM"
>>> experimental_result("CCOC(=O)C1(Cc2c[nH]c3ccccc23)C(O)CCCN1C(C)=O (stereo not given)")
"> 100 µM"
>>> experimental_result("O=C1C(=O)N(C2CCCCC2)C(=S)N1C1CCCCC1")
"> 100 µM"
>>> experimental_result("COC(=O)C(Cc1nc2ccc(Cl)cc2[nH]c1=O)C(=O)C(=O)Nc1ccccc1[N+](=O)[O-] (stereo not given)")
"> 100 µM"

* * *

tested on: SK-MEL-28 melanoma; assay: NCI tumour cell line growth inhibition, 48 h
Attribute Measured: TGI

>>> experimental_result("C/C(=N\\NC(N)=O)C(CN(C)C)C(c1ccccc1)c1c(O)c2ccccc2oc1=O (stereo unspecified)")
"> 100 µM"
>>> experimental_result("Cc1cccc(C)c1NC(=O)CCCC(=O)C1CC(=O)CCC1=O (stereo unspecified)")
"> 100 µM"
>>> experimental_result("C=C(N=[N+]=[N-])c1cn(C2CC(O)C(CO)O2)c(=O)[nH]c1=O (stereo unspecified)")
"> 100 µM"
>>> experimental_result("Nc1ccc(S(=O)(=O)c2ccc(NC(=O)c3cccnc3)cc2)cc1")
"> 100 µM"
>>> experimental_result("FC(F)(F)C12C34C=CC5(CCC6(C=CC1(CC3)O6)C52C(F)(F)F)O4 (stereo unspecified)")
"> 100 µM"
>>> experimental_result("C=C(C)CCC(C)N1CCC(N2CCC(C(=O)NCCc3ccccc3)CC2)CC1 (stereo unspecified)")
"27.5 µM"
>>> experimental_result("CCOC(=O)N1CCN(C(=O)Nc2cccc3ccccc23)CC1")
"> 10 µM"
>>> experimental_result("O=C1N[C@@H]([C@H](CCCCCO)OC(=O)c2ccccc2)CO1")
"> 100 µM"
>>> experimental_result("CN(C)Cc1cc(N=Nc2ccccc2Cl)cc(CN(C)C)c1O")
"33.6 µM"
>>> experimental_result("Cc1c2ccncc2c(C)c2c1[nH]c1ccc(OC(C)(C)C)cc12")
"3.77 µM"
>>> experimental_result("C1=NCCOCCN=Cc2ccccc2OCc2cccc(n2)COc2ccccc21")
"> 25 µM"

* * *

tested on: RXF 393 renal; test: NCI tumour cell line growth inhibition, 48 h
Attribute Measured: GI50

>>> experimental_result("COc1ccccc1-c1c(C)nn2c(NCc3ccccn3)cc(C)nc12")
"33500 nM"
>>> experimental_result("Cn1cc(-c2ccc3c(c2)CCN3C(=O)Cc2cccc(C(F)(F)F)c2)c2c(N)ncnc21")
"3460 nM"
>>> experimental_result("COc1cc(/C=C(/c2ccccc2)[N+](=O)[O-])c(OC)c2c1OCO2")
"1490 nM"
>>> experimental_result("N#CC1C(N)=NNC12Nc1ccccc1N2 (stereo unspecified)")
"335 nM"
>>> experimental_result("Cc1ccc2c(c1)ncn2-c1ncnc2c1CC(C)c1ccccc1N2C (stereo unspecified)")
"57.7 nM"
>>> experimental_result("C[C@H](CS(C)(=O)=O)Nc1ncc2cc(Oc3ccc(F)cc3F)c(=O)n(C)c2n1")
"> 25000 nM"
>>> experimental_result("O=c1[nH]cnc2c(C3OC(CO)C(O)C3O)scc12 (stereo unspecified)")
"> 100000 nM"
>>> experimental_result("CCN1C(=O)N(CC)C2C1NN=c1s/c(=C3\\C(=O)N(C)c4ccccc43)c(=O)n12 (stereo unspecified)")
"587 nM"
>>> experimental_result("COc1cnc2c(c1)C(=O)c1c-2n(CCCN2CCCC2)c(=O)c2cc(Cl)ccc12")
"705 nM"
>>> experimental_result("Cc1c(C)c2ccc(OC/C=C3\\CCC(=O)O3)cc2oc1=O")
"14200 nM"
>>> experimental_result("CCc1c2c(nc3cccc(N)c13)-c1cc3c(c(=O)n1C2)COC(=O)[C@]3(O)CC")
"63.6 nM"

* * *

test system: SN12C renal; test: NCI tumour cell line growth inhibition, 48 h
Attribute Measured: GI50

>>> experimental_result("COc1ccccc1-c1c(C)nn2c(NCc3ccccn3)cc(C)nc12")
"29.9 µM"
>>> experimental_result("Clc1ccc2nc(Oc3ccccc3)cnc2c1")
"> 100 µM"
>>> experimental_result("Cc1ccc2c(c1)ncn2-c1ncnc2c1CC(C)c1ccccc1N2C (stereo unspecified)")
"0.444 µM"
>>> experimental_result("Nc1nc(Nc2cccc(F)c2)nc2ccccc12")
"32.8 µM"
>>> experimental_result("CCc1c[nH]c2ncnc(N3CC[C@@](N)(CNC(=O)c4ccc(F)cc4F)C3)c12")
"32.1 µM"
>>> experimental_result("CC1=CC(=O)C(C(C)=Nc2ccccc2Cl)C(=O)O1 (stereo unspecified)")
"> 100 µM"

* * *

tested on: DU-145 prostate; assay: NCI tumour cell line growth inhibition, 48 h
Attribute Measured: TGI

>>> experimental_result("Cc1ccc2c(c1)ncn2-c1ncnc2c1CC(C)c1ccccc1N2C (stereo not drawn)")
"15.6 µM"
>>> experimental_result("COc1ccc2c(c1)nc(N)c1c3cccnc3cn21")
"> 33.6 µM"
>>> experimental_result("CCOC(CCCN1CCC2(CC1)C(=O)N(C)CN2c1ccccc1)(OCC)c1ccc(F)cc1")
"46.5 µM"
>>> experimental_result("COC(=O)[C@@H]1CCCN1C(=O)[C@@H]1CCCN1C(=O)[C@@H](Cc1c[nH]c2ccccc12)NC(=S)Nc1cc(C(F)(F)F)cc(C(F)(F)F)c1")
"> 100 µM"
>>> experimental_result("CC(C)(Br)C(=O)/C=C/c1ccccc1")
"22.9 µM"
>>> experimental_result("O=[N+]([O-])c1ccc(CS(=O)Cc2ccccc2)cc1 (stereo not drawn)")
"> 100 µM"
>>> experimental_result("COc1cc(/C=C(/c2ccccc2)[N+](=O)[O-])c(OC)c2c1OCO2")
"3.02 µM"
>>> experimental_result("O=c1[nH]cnc2c(C3OC(CO)C(O)C3O)scc12 (stereo not drawn)")
"> 100 µM"
>>> experimental_result("C[C@H](CS(C)(=O)=O)Nc1ncc2cc(Oc3ccc(F)cc3F)c(=O)n(C)c2n1")
"> 25 µM"
>>> experimental_result("NC1CNC(=O)c2cscc21 (stereo not drawn)")
"> 100 µM"
>>> experimental_result("COc1ccccc1-c1c(C)nn2c(NCc3ccccn3)cc(C)nc12")
"> 50 µM"
>>> experimental_result("O=C1C=CC(=O)c2c(O)c(N[C@@H](Cc3ccccc3)C(=O)OCc3ccccc3)c(Cl)c(O)c21")
"> 10 µM"
>>> experimental_result("O=c1oc2ccc(Cl)cc2c(=O)n1-c1ccc(I)cc1F")
"> 49.5 µM"
>>> experimental_result("COc1ccc(/C=C2\\CCCC3=C2NC(C)=NC3c2ccc(OC)c(OC)c2)cc1OC (stereo not drawn)")
"> 100 µM"
>>> experimental_result("Cn1cc(-c2ccc(CNc3cc(-c4cnc5cc(OCCCN6CCCC6)ccn45)ncn3)cc2)cn1")
"31.5 µM"
>>> experimental_result("COc1cc2cc(Oc3ccc(NC(=O)c4ccc(Cl)c(C(F)(F)F)c4)cc3)c(C)nc2cc1OC")
"> 100 µM"
>>> experimental_result("O=[N+]([O-])c1ccc(N=NN2CCCC2)cc1")
"> 100 µM"
>>> experimental_result("Cc1ncc([N+](=O)[O-])n1CCNC(=O)CCCn1cnc([N+](=O)[O-])n1")
"> 100 µM"
>>> experimental_result("C/C(=N\\NC(N)=O)C(CN(C)C)C(c1ccccc1)c1c(O)c2ccccc2oc1=O (stereo not drawn)")
"> 100 µM"
>>> experimental_result("NCCCc1ccc2oc3ccccc3c2c1")
"30.6 µM"
>>> experimental_result("Cn1c(COC(=O)NC2CCCCC2)c(COC(=O)NC2CCCCC2)c2ccc3cc(Cl)c(Cl)cc3c21")
"84.7 µM"
>>> experimental_result("COc1ccc(-c2c(C#N)c(S)n(C3OC(CO)C(O)C(O)C3O)c(=O)c2C#N)cc1 (stereo not drawn)")
"> 100 µM"
>>> experimental_result("Nc1ccc(S(=O)(=O)c2ccc(NC(=O)c3cccnc3)cc2)cc1")
"> 100 µM"
